# System: MCF7
# procedure-text: Cytotoxicity against human MCF7 cells by SRB assay
# Assay type: functional, cell-based
pIC50: −log10 of the molar value.
# binarize pIC50: threshold 7 inclusive, high side 1, low side 0

QUERY: Decide: is the reported value of pIC50 for CO[C@H]1C/C=C/c2nc(co2)-c2nc(co2)-c2nc(co2)[C@H](OC)[C@@H](C)[C@@H](O)C[C@@H](C)C[C@H](OC(N)=O)CC(=O)O[C@@H](C[C@H](OC)[C@@H](C)CCC(=O)/C(C)=C/[C@H](C)/C=C/N(C)C=O)[C@@H]1C [KABIRAMIDE G] equal to or greater than 7?
RESULT: 1

QUERY: Decide: is the reported value of pIC50 for `CC[C@@]1(O)C(=O)OCc2c1cc1n(c2=O)Cc2cc3ccccc3nc2-1` equal to or greater than 7?
RESULT: 1

QUERY: Decide: is the reported value of pIC50 for CO[C@H]([C@H](C)/C=C/N(C)C=O)[C@@H](C)C(=O)CC[C@H](C)[C@H](C[C@@H]1OC(=O)C[C@@H](OC(N)=O)C[C@H](C)C[C@H](O)[C@H](C)[C@@H](OC)c2coc(n2)-c2coc(n2)-c2coc(n2)/C=C/C[C@H](OC)[C@H]1C)OC [KABIRAMIDE C] equal to or greater than 7?
RESULT: 0

QUERY: Decide: is the reported value of pIC50 for CO[C@H]([C@H](C)/C=C/N(C)C=O)[C@@H](C)C(=O)CC[C@H](C)[C@H](C[C@@H]1OC(=O)C[C@@H](O)C[C@H](C)C[C@H](O)[C@H](C)[C@@H](OC)c2coc(n2)-c2coc(n2)-c2coc(n2)/C=C/C[C@H](OC)[C@H]1C)OC [KABIRAMIDE D] equal to or greater than 7?
RESULT: 1

QUERY: Decide: is the reported value of pIC50 for CO[C@H]([C@H](C)/C=C/N(C)C=O)[C@@H](C)C(=O)CC[C@H](C)[C@H](C[C@@H]1OC(=O)C[C@@H](OC(N)=O)C[C@H](C)C[C@H](O)[C@H](C)[C@@H](OC)c2coc(n2)-c2coc(n2)-c2coc(n2)/C=C/C[C@H](O)[C@H]1C)OC [KABIRAMIDE B] equal to or greater than 7?
RESULT: 0

QUERY: Decide: is the reported value of pIC50 for CO[C@@H](C[C@@H]1OC(=O)C[C@@H](OC(N)=O)C[C@H](C)C[C@H](O)[C@H](C)[C@@H](OC)c2coc(n2)-c2coc(n2)-c2coc(n2)/C=C/C[C@H](O)[C@H]1C)[C@@H](C)CCC(=O)/C(C)=C/[C@H](C)/C=C/N(C)C=O [KABIRAMIDE J] equal to or greater than 7?
RESULT: 1
